PROTOCOL_DESCRIPTION: Pulmonary toxicity in Lewis rat assessed as elevation of BAL protein level at 10 mg/kg by advia1800 chemistry analyzer
Assay type: organism-based
CONDITIONS_USED: in vivo
PROPERTY_LABEL: Activity (mg/dL)
The response must be a number in mg/dL with no trailing unit.

The cases that follow already have their Activity on record.
INSERT INTO assay_data (compound, unit_descriptor, measured_number) VALUES
  ('COc1ccccc1CC[C@@H]1CCc2cc([C@H]3CC[C@](N)(CO)C3)ccc2C1 [UDIFITIMOD]', 'mg/dL', 14),
  ('COc1cccc(CC[C@@H]2CCc3cc([C@H]4CC[C@](N)(CO)C4)ccc3C2)c1', 'mg/dL', 12.7),
  ('COc1cccc(CC[C@H]2CCc3cc([C@H]4CC[C@](N)(CO)C4)ccc3C2)c1', 'mg/dL', 17.5);

In the following, a different compound is considered.
Prompt line: Identify measured Activity corresponding to "COc1ccccc1CC[C@H]1CCc2cc([C@H]3CC[C@](N)(CO)C3)ccc2C1"
Response line: 29

---

PROTOCOL_DESCRIPTION: Volume of distribution at steady state in cynomolgus monkey at 1 mg/kg, po or 1 mg/kg, iv
Format: ADME, organism-based, Macaca fascicularis
CONDITIONS_USED: in vivo, read-out: Vdss
PROPERTY_LABEL: Vd (L/kg)
Please reply with the bare figure in L/kg and do not write the unit itself.

Prompt line: Quickly give me recorded Vd for "COc1ccccc1CC[C@@H]1CCc2cc([C@H]3CC[C@](N)(CO)C3)ccc2C1"
Response line: 10

---

PROTOCOL_DESCRIPTION: Drug metabolism in Balb/c mouse blood assessed as concentration of parent compound at 30 mg/kg, po measured at 4 hrs by LC-MS/MS analysis
Format: ADME, organism-based
CONDITIONS_USED: in vivo, 30 mg/kg, 4 h, 30 mg/kg, 4 h, read-out: Ct
PROPERTY_LABEL: concentration (nM)
I only need the number, in nM, no unit after it.

Prompt line: State its concentration: N[C@]1(CO)CC[C@H](c2ccc3c(c2)CCC(c2ccccc2)C3)C1 (stereo in doubt; 8b)
Response line: 750

---

PROTOCOL_DESCRIPTION: Drug metabolism in Lewis rat blood assessed as concentration of parent compound at 2 mg/kg, po measured at 4 hrs by LC-MS/MS analysis
Assay type: ADME, organism-based
CONDITIONS_USED: read-out: Ct
Rule: measured concentration at 4 h below 200 nM gets True; anything equal to or greater than 200 nM gets False.

INSERT INTO results (compound, category_label) VALUES
  ('COc1cccc(CC2CCc3cc([C@H]4CC[C@](N)(CO)C4)ccc3C2)c1 (stereo in doubt; 12a)', 'True'),
  ('COc1ccc(CC[C@@H]2CCc3cc([C@H]4CC[C@](N)(CO)C4)ccc3C2)cc1', 'True'),
  ('COc1cccc(CC[C@H]2CCc3cc([C@H]4CC[C@](N)(CO)C4)ccc3C2)c1', 'True'),
  ('COc1ccccc1CC[C@H]1CCc2cc([C@H]3CC[C@](N)(CO)C3)ccc2C1', 'True'),
  ('N[C@]1(CO)CC[C@H](c2ccc3c(c2)CC[C@H](CCc2ccccc2)C3)C1', 'False');

Prompt line: Item "COc1ccc(CC[C@H]2CCc3cc([C@H]4CC[C@](N)(CO)C4)ccc3C2)cc1" : concentration at 4 h beneath 200 nM, strictly?
Response line: True
